system: KRAS PDC multicell spheroid viability; experiment: Anticancer human tumor 825966-067-R-J1-PDC patient-derived colon carcinoma cell line growth inhibition [KRAS2]; settings: second compound 0.1 µM; first compound 0.316 µM; active compounds read low
Give measured viability, T/C for each item. Keep answers brief.

Provide the reported viability, T/C of each entry below, same order.
1. CC1OCC2(CCN(c3cnc(Sc4ccnc(N)c4Cl)c(N)n3)CC2)C1N (stereo not drawn) + C=CC(=O)N1CCN(c2nc(=O)n(-c3c(C)ccnc3C(C)C)c3nc(-c4c(O)cccc4F)c(F)cc23)C(C)C1
2. CC1COCCN1c1cc(-c2ccnn2C)c2ccnc(-c3ccn[nH]3)c2n1 (stereo not drawn) + CNCc1ccccc1-c1csc(C(C)Nc2nc(C)nc3cc(OC)c(OC)cc23)c1

98.4%
34.4%

Report value only: viability, T/C, KRAS PDC multicell spheroid viability, CC(C)NCC(C(=O)N1CCN(c2ncnc3c2C(C)CC3O)CC1)c1ccc(Cl)cc1 (stereo not drawn) + C=CC(=O)N1CCN(c2nc(OCC3CCCN3C)nc3c2CCN(c2cccc4cccc(C)c24)C3)CC1CC#N
126%

###

What viability, T/C was measured for each of the following?
system: KRAS PDC multicell spheroid viability; assay: Anticancer human tumor 825966-067-R-J1-PDC cell line growth inhibition [KRAS2]; details: second compound 0.1 µM; first compound 0.316 µM; active compounds read low;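 further: spheroids exposed to compounds for 7 days; 100% = DMSO vehicle control viability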
Give bare numbers, in %.

Worked examples follow.
| COMPOUND | VALUE |
| --- | --- |
| CC1(C)CCC(CN2CCN(c3ccc(C(=O)NS(=O)(=O)c4ccc(NCC5CCOCC5)c([N+](=O)[O-])c4)c(Oc4cnc5[nH]ccc5c4)c3)CC2)=C(c2ccc(Cl)cc2)C1 + CC1OCC2(CCN(c3cnc(Sc4ccnc(N)c4Cl)c(N)n3)CC2)C1N | 116 |
| CC1COCCN1c1cc(-c2ccnn2C)c2ccnc(-c3ccn[nH]3)c2n1 (stereo not given) + CC1OCC2(CCN(c3cnc(Sc4ccnc(N)c4Cl)c(N)n3)CC2)C1N | 75.3 |
| CC(C)NCC(C(=O)N1CCN(c2ncnc3c2C(C)CC3O)CC1)c1ccc(Cl)cc1 (stereo not given) + C=CC(=O)N1CCN(c2nc(=O)n(-c3c(C)ccnc3C(C)C)c3nc(-c4c(O)cccc4F)c(F)cc23)C(C)C1 | 155 |
| COC(=O)c1ccc2c(C(=Nc3ccc(N(C)C(=O)CN4CCN(C)CC4)cc3)c3ccccc3)c(O)[nH]c2c1 + CNCc1ccccc1-c1csc(C(C)Nc2nc(C)nc3cc(OC)c(OC)cc23)c1 | 77.7 |

// switching to the query compound
Given CC1OCC2(CCN(c3cnc(Sc4ccnc(N)c4Cl)c(N)n3)CC2)C1N (stereo not given) + CNCc1ccccc1-c1csc(C(C)Nc2nc(C)nc3cc(OC)c(OC)cc23)c1 , report its viability, T/C on KRAS PDC multicell spheroid viability.
101

###

tested on: KRAS PDC multicell spheroid viability; assay: Anticancer human tumor 825966-067-R-J1-PDC cell line growth inhibition [KRAS2]; conditions: second compound 0.1 µM; first compound 0.01 µM; active compounds read low;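 further: spheroids exposed to compounds for 7 days; 100% = DMSO vehicle control viability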
Give viability, T/C for every item shown.
Answers are plain numbers, in %.

| COMPOUND | viability, T/C [%] |
| --- | --- |
| CN(C)C/C=C/C(=O)Nc1cc2c(Nc3ccc(F)c(Cl)c3)ncnc2cc1O[C@H]1CCOC1 + C=CC(=O)N1CCN(c2nc(=O)n(-c3c(C)ccnc3C(C)C)c3nc(-c4c(O)cccc4F)c(F)cc23)C(C)C1 | 101 |

Dear colleague, could you please provide viability, T/C for the compounds listed below?
1. CC(=O)Nc1cccc(-n2c(=O)n(C3CC3)c(=O)c3c(Nc4ccc(I)cc4F)n(C)c(=O)c(C)c32)c1 + C=CC(=O)N1CCN(c2nc(OCC3CCCN3C)nc3c2CCN(c2cccc4cccc(C)c24)C3)CC1CC#N
2. CC(C)n1nc(-c2ccc3oc(N)nc3c2)c2c(N)ncnc21 + C=CC(=O)N1CCN(c2nc(OCC3CCCN3C)nc3c2CCN(c2cccc4cccc(C)c24)C3)CC1CC#N
3. CCN1CCN(Cc2ccc(Nc3ncc(F)c(-c4cc(F)c5nc(C)n(C(C)C)c5c4)n3)nc2)CC1 + COc1cc2nc(C)nc(NC(C)c3cc(N)cc(C(F)(F)F)c3)c2cc1OC1CCOC1
4. Cn1ncnc1[C@H]1c2n[nH]c(=O)c3cc(F)cc(c23)N[C@@H]1c1ccc(F)cc1 + CC1OCC2(CCN(c3cnc(Sc4ccnc(N)c4Cl)c(N)n3)CC2)C1N
5. CN(C)C/C=C/C(=O)Nc1cc2c(Nc3ccc(F)c(Cl)c3)ncnc2cc1O[C@H]1CCOC1 + C=CC(=O)N1CCN(c2nc(OCC3CCCN3C)nc3c2CCN(c2cccc4cccc(C)c24)C3)CC1CC#N

94.9
162
111
71.5
94.3

Look at each compound and report its viability, T/C.
1. CN(C)C/C=C/C(=O)Nc1cc2c(Nc3ccc(F)c(Cl)c3)ncnc2cc1O[C@H]1CCOC1 + CNCc1ccccc1-c1csc(C(C)Nc2nc(C)nc3cc(OC)c(OC)cc23)c1
2. Cn1ncnc1[C@H]1c2n[nH]c(=O)c3cc(F)cc(c23)N[C@@H]1c1ccc(F)cc1 + C=CC(=O)N1CCN(c2nc(OCC3CCCN3C)nc3c2CCN(c2cccc4cccc(C)c24)C3)CC1CC#N

113
80

###

test system: KRAS PDC multicell spheroid viability; test: Anticancer human tumor 825966-067-R-J1-PDC cell line growth inhibition [KRAS2]; settings: second compound 0.1 µM; first compound 0.0316 µM; active compounds read low;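 further: spheroids exposed to compounds for 7 days; 100% = DMSO vehicle control viability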
VALUE TYPE: viability, T/C (%)
Answers are plain numbers, in %.

See these solved cases before continuing.
| COMPOUND | viability, T/C [%] |
| --- | --- |
| COC(=O)c1ccc2c(C(=Nc3ccc(N(C)C(=O)CN4CCN(C)CC4)cc3)c3ccccc3)c(O)[nH]c2c1 + COc1cc2nc(C)nc(NC(C)c3cc(N)cc(C(F)(F)F)c3)c2cc1OC1CCOC1 | 89.6 |
| COc1cc2nccc(Oc3ccc(NC(=O)C4(C(=O)Nc5ccc(F)cc5)CC4)cc3)c2cc1OC + C=CC(=O)N1CCN(c2nc(OCC3CCCN3C)nc3c2CCN(c2cccc4cccc(C)c24)C3)CC1CC#N | 117 |
| CC(C)n1nc(-c2ccc3oc(N)nc3c2)c2c(N)ncnc21 + C=CC(=O)N1CCN(c2nc(=O)n(-c3c(C)ccnc3C(C)C)c3nc(-c4c(O)cccc4F)c(F)cc23)C(C)C1 | 130 |
| CC(C)NCC(C(=O)N1CCN(c2ncnc3c2C(C)CC3O)CC1)c1ccc(Cl)cc1 (stereo unspecified) + C=CC(=O)N1CCN(c2nc(=O)n(-c3c(C)ccnc3C(C)C)c3nc(-c4c(O)cccc4F)c(F)cc23)C(C)C1 | 105 |
| CCNC(=O)CC1N=C(c2ccc(Cl)cc2)c2cc(OC)ccc2-n2c(C)nnc21 (stereo unspecified) + COc1cc2nc(C)nc(NC(C)c3cc(N)cc(C(F)(F)F)c3)c2cc1OC1CCOC1 | 97.2 |
| CC(C)NCC(C(=O)N1CCN(c2ncnc3c2C(C)CC3O)CC1)c1ccc(Cl)cc1 (stereo unspecified) + C=CC(=O)N1CCN(c2nc(OCC3CCCN3C)nc3c2CCN(c2cccc4cccc(C)c24)C3)CC1CC#N | 83.8 |
| O=C(c1cc(Cc2n[nH]c(=O)c3ccccc23)ccc1F)N1CCN(C(=O)C2CC2)CC1 + CNCc1ccccc1-c1csc(C(C)Nc2nc(C)nc3cc(OC)c(OC)cc23)c1 | 102 |
| CC1COCCN1c1cc(-c2ccnn2C)c2ccnc(-c3ccn[nH]3)c2n1 (stereo unspecified) + CNCc1ccccc1-c1csc(C(C)Nc2nc(C)nc3cc(OC)c(OC)cc23)c1 | 129 |
| CC(C)NCC(C(=O)N1CCN(c2ncnc3c2C(C)CC3O)CC1)c1ccc(Cl)cc1 (stereo unspecified) + COc1cc2nc(C)nc(NC(C)c3cc(N)cc(C(F)(F)F)c3)c2cc1OC1CCOC1 | 122 |
| O=C(c1cc(Cc2n[nH]c(=O)c3ccccc23)ccc1F)N1CCN(C(=O)C2CC2)CC1 + CC1OCC2(CCN(c3cnc(Sc4ccnc(N)c4Cl)c(N)n3)CC2)C1N | 78.2 |

Attention now shifts to the item below.
Give measured viability, T/C for CC1OCC2(CCN(c3cnc(Sc4ccnc(N)c4Cl)c(N)n3)CC2)C1N (stereo unspecified) + C=CC(=O)N1CCN(c2nc(OCC3CCCN3C)nc3c2CCN(c2cccc4cccc(C)c24)C3)CC1CC#N (KRAS PDC multicell spheroid viability).
84.6

###

system: KRAS PDC multicell spheroid viability; experiment: Anticancer human tumor 825966-067-R-J1-PDC cell line growth inhibition [KRAS2]; conditions: second compound 0.1 µM; first compound 0.0316 µM; active compounds read low;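 further: spheroids exposed to compounds for 7 days; 100% = DMSO vehicle control viability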
VALUE TYPE: viability, T/C (%)
One number for each entry, in %.

Provide viability, T/C for all items below, preserving their order.
1. CC(=O)Nc1cccc(-n2c(=O)n(C3CC3)c(=O)c3c(Nc4ccc(I)cc4F)n(C)c(=O)c(C)c32)c1 + COc1cc2nc(C)nc(NC(C)c3cc(N)cc(C(F)(F)F)c3)c2cc1OC1CCOC1
2. CN(C)C/C=C/C(=O)Nc1cc2c(Nc3ccc(F)c(Cl)c3)ncnc2cc1O[C@H]1CCOC1 + CNCc1ccccc1-c1csc(C(C)Nc2nc(C)nc3cc(OC)c(OC)cc23)c1
3. CC1(C)CCC(CN2CCN(c3ccc(C(=O)NS(=O)(=O)c4ccc(NCC5CCOCC5)c([N+](=O)[O-])c4)c(Oc4cnc5[nH]ccc5c4)c3)CC2)=C(c2ccc(Cl)cc2)C1 + CC1OCC2(CCN(c3cnc(Sc4ccnc(N)c4Cl)c(N)n3)CC2)C1N
4. Cn1nccc1Nc1nccc(-c2cc3c(s2)C(C)(C)N(CCN2CCOCC2)C3=O)n1 + C=CC(=O)N1CCN(c2nc(=O)n(-c3c(C)ccnc3C(C)C)c3nc(-c4c(O)cccc4F)c(F)cc23)C(C)C1
5. CC1COCCN1c1cc(-c2ccnn2C)c2ccnc(-c3ccn[nH]3)c2n1 (stereo not given) + COc1cc2nc(C)nc(NC(C)c3cc(N)cc(C(F)(F)F)c3)c2cc1OC1CCOC1
6. CC(C)NCC(C(=O)N1CCN(c2ncnc3c2C(C)CC3O)CC1)c1ccc(Cl)cc1 (stereo not given) + CNCc1ccccc1-c1csc(C(C)Nc2nc(C)nc3cc(OC)c(OC)cc23)c1
7. CC1OCC2(CCN(c3cnc(Sc4ccnc(N)c4Cl)c(N)n3)CC2)C1N (stereo not given) + CNCc1ccccc1-c1csc(C(C)Nc2nc(C)nc3cc(OC)c(OC)cc23)c1
8. CC(=O)Nc1cccc(-n2c(=O)n(C3CC3)c(=O)c3c(Nc4ccc(I)cc4F)n(C)c(=O)c(C)c32)c1 + C=CC(=O)N1CCN(c2nc(OCC3CCCN3C)nc3c2CCN(c2cccc4cccc(C)c24)C3)CC1CC#N

[84.8, 88.8, 103, 89.9, 122, 84.8, 109, 50.5]

Dear colleague, could you please provide viability, T/C for the compounds listed below?
1. CCN1CCN(Cc2ccc(Nc3ncc(F)c(-c4cc(F)c5nc(C)n(C(C)C)c5c4)n3)nc2)CC1 + C=CC(=O)N1CCN(c2nc(=O)n(-c3c(C)ccnc3C(C)C)c3nc(-c4c(O)cccc4F)c(F)cc23)C(C)C1
2. COc1cc2nccc(Oc3ccc(NC(=O)C4(C(=O)Nc5ccc(F)cc5)CC4)cc3)c2cc1OC + CNCc1ccccc1-c1csc(C(C)Nc2nc(C)nc3cc(OC)c(OC)cc23)c1

101
86.2
